# system under test: recombinant human plasminogen activator inhibitor-1 (PAI-1) (Homo sapiens)
# Construct: purchased Molecular Innovations, Royal Oak, Mich
# Sequence (P05121 24-402): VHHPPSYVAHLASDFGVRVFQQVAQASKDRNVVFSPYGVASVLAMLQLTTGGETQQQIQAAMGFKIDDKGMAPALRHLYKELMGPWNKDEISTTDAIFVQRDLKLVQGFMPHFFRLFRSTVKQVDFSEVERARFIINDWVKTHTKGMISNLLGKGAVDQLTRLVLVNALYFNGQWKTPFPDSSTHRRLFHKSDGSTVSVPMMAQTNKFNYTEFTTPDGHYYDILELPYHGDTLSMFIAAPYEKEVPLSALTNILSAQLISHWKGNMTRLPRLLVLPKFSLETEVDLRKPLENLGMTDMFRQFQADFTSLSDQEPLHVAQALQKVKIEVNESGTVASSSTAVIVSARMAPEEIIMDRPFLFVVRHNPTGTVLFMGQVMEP
# method: Primary Screen for the PAI-1 Inhibition
# Format: biochemical
# experimental context: 100 μM test compound; read-out: % Inhib. 100 μM
Structures can show the parent of a compound that is named as a salt.
parameter: inhibition at 100 µM (%)

The examples below pair each entry with its known result.
{"compound": "CCCCc1oc2ccccc2c1C(=O)N(Cc1ccccc1)Cc1ccc2c(Br)c(OC(Cc3ccccc3)C(=O)O)ccc2c1 (stereo not drawn) [Example 68]", "unit string": "%", "inhibition at 100 µM": 84}
{"compound": "O=C(O)COc1ccc2cc(CNC(=O)C3(c4ccccc4)CCCC3)ccc2c1 [Example 87]", "unit string": "%", "inhibition at 100 µM": 32}
{"compound": "CN(Cc1ccc2c(Br)c(OC(Cc3ccccc3)C(=O)O)ccc2c1)C(=O)c1cc(C(C)(C)C)cc(C(C)(C)C)c1 (stereo not drawn) [Example 65]", "unit string": "%", "inhibition at 100 µM": 88}

(a) CCCCc1oc2ccccc2c1C(=O)NCc1ccc2c(-c3ccc(OC)cc3)c(OCc3nnn[nH]3)ccc2c1 [Example 25, sodium salt]
(b) CCCCc1oc2ccccc2c1C(=O)NCc1ccc2c(-c3ccc(C)cc3)c(OCc3nnn[nH]3)ccc2c1 [Example 23]
input: Form field 'greater inhibition at 100 µM' accepts a or b ; which applies? # respond with the chosen item's label
output: a

----------
# system under test: recombinant human plasminogen activator inhibitor-1 (PAI-1) (Homo sapiens)
# Construct: purchased Molecular Innovations, Royal Oak, Mich
# method: Primary Screen for the PAI-1 Inhibition
# Format: biochemical
# experimental context: 25 μM test compound; read-out: % Inhib. 25 μM
# Experimental: Test compounds are dissolved in DMSO at a final concentration of 10 mM, then diluted 100× in physiologic buffer. […] Following the second incubation, Spectrozyme-tPA (American Diagnostica, Greenwich, Conn.), a chromogenic substrate for tPA, is added and absorbance read at 405 nm at 0 and 60 minutes. […]
parameter: inhibition at 25 µM (%)

{"compound": "CC(C)(C)c1cc(C(=O)NCc2ccc3c(Br)c(OC(Cc4ccccc4)C(=O)O)ccc3c2)cc(C(C)(C)C)c1 (stereo not shown)", "inhibition at 25 µM, %": 84}
{"compound": "CCCCc1oc2ccccc2c1C(=O)N(C)Cc1ccc2c(Br)c(OCc3nnn[nH]3)ccc2c1", "inhibition at 25 µM, %": 62}

(A) CCCCc1c(C(=O)N(C)Cc2ccc3c(Br)c(OCC(Cc4ccccc4)C(=O)O)ccc3c2)oc2ccccc12 (stereo not shown)
(B) CCCc1c(C(=O)NCc2ccc3cc(OCC(=O)O)ccc3c2)cnn1-c1ccc(Cl)cc1
input: Form field 'greater inhibition at 25 µM' accepts A or B ; which applies? # respond with the chosen item's label
output: A

----------
Counter-ions that a name gives are not always drawn.
molecules and their reported melting point

The examples below pair each entry with its known result.
{"molecule": "CCCCc1oc2ccccc2c1C(=O)NCc1ccc2c(Br)c(OCC(=O)O)ccc2c1 (as salt: sodium) [Example 19]", "parameter": "melting point", "experimental value": "260 °C"}
{"molecule": "CC(C)(C)c1cc(C(=O)NCc2ccc3c(Br)c(OC(Cc4ccccc4)C(=O)O)ccc3c2)cc(C(C)(C)C)c1 (stereo not drawn) [Example 56]", "parameter": "melting point", "experimental value": "160 to 163 °C"}
{"molecule": "O=C(NCc1ccc2c(Br)c(OC(Cc3ccccc3)C(=O)O)ccc2c1)c1ccc(Oc2cc(Cl)cc(Cl)c2)o1 (stereo not drawn) [Example 53]", "parameter": "melting point", "experimental value": "86 to 100 °C"}
{"molecule": "Cc1c(C(=O)NCc2ccc3c(Br)c(OCc4nnn[nH]4)ccc3c2)oc2ccccc12 [Example 43]", "parameter": "melting point", "experimental value": "212 to 215 °C"}

input: Provide only the value of recorded melting point for CCc1oc2ccccc2c1C(=O)NCc1ccc2c(Br)c(OCc3nnn[nH]3)ccc2c1 [Example 21]
output: 235 to 238 °C

input: Provide only the value of recorded melting point for CCCCc1oc2ccccc2c1C(=O)Nc1ccc2c(Br)c(OCc3nn[nH]n3)ccc2c1 [Example 5]
output: 242 to 245 °C

input: Provide only the value of recorded melting point for Cc1oc2ccccc2c1C(=O)NCc1ccc2c(Br)c(OCc3nnn[nH]3)ccc2c1 [Example 20]
output: 242 to 244 °C

input: Provide only the value of recorded melting point for CCCCc1oc2ccccc2c1C(=O)NCc1ccc2c(-c3ccc(Cl)cc3)c(OCc3nnn[nH]3)ccc2c1 [Example 26]
output: 208 to 211 °C

input: Provide only the value of recorded melting point for CCCCc1oc2ccccc2c1C(=O)N(C)Cc1ccc2c(Br)c(OCc3nnn[nH]3)ccc2c1 [Example 31]
output: 190 to 194 °C

input: Provide only the value of recorded melting point for CCCCc1oc2ccccc2c1C(=O)NCc1ccc2c(-c3ccc(OC)cc3)c(OCc3nnn[nH]3)ccc2c1 (as salt: sodium) [Example 25]
output: 147 to 152 °C

input: Provide only the value of recorded melting point for CCCCc1oc2ccccc2c1C(=O)NCc1ccc2cc(OCC(=O)[O-])ccc2c1.[Na+] [Example 9]
output: > 275 °C

----------
# system under test: recombinant human plasminogen activator inhibitor-1 (PAI-1) (Homo sapiens)
# Construct: purchased Molecular Innovations, Royal Oak, Mich
# method: Primary Screen for the PAI-1 Inhibition
# Type: biochemical
# experimental context: 25 μM test compound; read-out: % Inhib. 25 μM
Where a name gives a salt, the structure may show the parent alone.
parameter: inhibition at 25 µM (%)

The examples below pair each entry with its known result.
{"compound": "CC(C)(C)c1cc(C(=O)N(Cc2ccccc2)Cc2ccc3c(Br)c(OC(Cc4ccccc4)C(=O)O)ccc3c2)cc(C(C)(C)C)c1 (stereo not drawn)", "system under test": "recombinant human plasminogen activator inhibitor-1 (PAI-1) (Homo sapiens)", "unit string": "%", "inhibition at 25 µM": 55}
{"compound": "CN(Cc1ccc2c(Br)c(OCc3nnn[nH]3)ccc2c1)C(=O)c1cn(Cc2ccccc2)c2ccccc12", "system under test": "recombinant human plasminogen activator inhibitor-1 (PAI-1) (Homo sapiens)", "unit string": "%", "inhibition at 25 µM": 34}
{"compound": "CN(Cc1ccc2c(Br)c(OCc3nnn[nH]3)ccc2c1)C(=O)c1ccc(Oc2cc(Cl)cc(Cl)c2)o1", "system under test": "recombinant human plasminogen activator inhibitor-1 (PAI-1) (Homo sapiens)", "unit string": "%", "inhibition at 25 µM": 47}
{"compound": "O=C(O)COc1ccc2cc(CNC(=O)c3cc(-c4ccccc4Cl)oc3C(F)(F)F)ccc2c1", "system under test": "recombinant human plasminogen activator inhibitor-1 (PAI-1) (Homo sapiens)", "unit string": "%", "inhibition at 25 µM": 12}
{"compound": "CCCCc1oc2ccccc2c1C(=O)NCc1ccc2cc(OCc3nnn[nH]3)ccc2c1 [Example 8, sodium salt]", "system under test": "recombinant human plasminogen activator inhibitor-1 (PAI-1) (Homo sapiens)", "unit string": "%", "inhibition at 25 µM": 13}

(I) CCCCc1oc2ccccc2c1C(=O)NCc1ccc2c(-c3ccc(Cl)cc3)c(OC(Cc3ccccc3)C(=O)O)ccc2c1 (stereo not drawn)
(II) Cc1c(C(=O)NCc2ccc3c(Br)c(OCc4nnn[nH]4)ccc3c2)oc2ccccc12
input: Form field 'greater inhibition at 25 µM' accepts I or II ; which applies? # respond with the chosen item's label
output: II
(II: 47%, I: 23%)

(A) CCCc1c(C(=O)NCc2ccc3c(Br)c(OCc4nnn[nH]4)ccc3c2)cnn1-c1ccccc1
(B) CCCCc1oc2ccccc2c1C(=O)NCc1ccc2c(-c3ccc(Cl)cc3)c(OCc3nnn[nH]3)ccc2c1
(C) CCCc1c(C(=O)N(C)Cc2ccc3c(Br)c(OCc4nnn[nH]4)ccc3c2)cnn1-c1ccccc1
(D) Cc1oc(-c2ccc(Cl)cc2)cc1C(=O)NCc1ccc2cc(OCC(=O)O)ccc2c1
(E) CCCCc1oc2ccccc2c1C(=O)Nc1ccc2cc(OCC(=O)O)ccc2c1 [Example 4, sodium salt]
input: Ordering criterion: inhibition at 25 µM; begin with the maximum. List labels; respect the requested ordering.
output: C, B, A, D, E
(C: 59%, B: 20%, A: 12%, D: 7%, E: 3%)

(I) CC(C)(C)c1cc(C(=O)Nc2ccc3cc(OCC(=O)O)ccc3c2)cc(C(C)(C)C)c1
(II) CN(Cc1ccc2c(Br)c(OCC(=O)O)ccc2c1)C(=O)c1oc2ccccc2c1CCc1ccccc1
input: # min-compare on inhibition at 25 µM between I and II # respond with the chosen item's label
output: I

----------
Counter-ions that a name gives are not always drawn.
parameter: melting point

The examples below pair each entry with its known result.
{"compound": "CCCCc1oc2ccccc2c1C(=O)NCc1ccc2c(Br)c(OCc3nnn[nH]3)ccc2c1.[Na]", "experimental value": "214 to 215 °C"}
{"compound": "CCCCc1oc2ccccc2c1C(=O)NCc1ccc2c(-c3ccc(OC)cc3)c(OC(Cc3ccccc3)C(=O)[O-])ccc2c1.[Na+] (stereo not shown)", "experimental value": "138 to 142 °C"}
{"compound": "CCCCN(Cc1ccc2c(Br)c(OCc3nnn[nH]3)ccc2c1)C(=O)c1c(C)oc2ccccc12", "experimental value": "204 to 206 °C"}

With those in mind, consider the next compound.
input: Provide only the value of recorded melting point for CCCCc1oc2ccccc2c1C(=O)NCc1ccc2cc(OCc3nnn[nH]3)ccc2c1 (as salt: sodium)
output: 207 to 210 °C
